test: in vivo; details: mouse, oral, mortality for one week, Probit method
Structures can show the parent of a compound that is named as a salt.
Consider the following compounds; for each one, report its LD50 at 168 h.
One number for each entry, in mg/kg.

compound | property label | value measured
Cc1ccc(C(=O)C(C)CN2CCCCC2)cc1 (stereo not drawn) | LD50 at 168 h | 450
CC(CN1CCCC1)C(=O)c1ccc(C2CCCCC2)cc1 (stereo not drawn) | LD50 at 168 h | 587

Field: next compound
Q: Looking for the measured LD50 at 168 h of Cc1c(-c2ccccc2)oc2c(C(=O)OCCN3CCCCC3)cccc2c1=O [flavoxate-HCl, reference compound] , can you help?
Ans: 1330
